tested on: HEK-293T; assay: Multiplex assay against HEK293T; format: toxicity, cell-based; settings: human, 24 h, 1 µM, compound concentration 1 uM, replicate 2
Each record is given Criterion met if its reported Population Membrane Permeable-Phenotype (%) is strictly below 9%. Records at or above 9% are given Criterion not met.

CCOc1cc(C(=O)N2CCC(N3CCN(C)CC3)CC2)ccc1Nc1ncc2c(n1)N(C1CCCC1)c1ccccc1C(=O)N2C; Criterion met
O=C(Nc1cccnn1)N1CCC(=Cc2cccc(Oc3ccc(C(F)(F)F)cn3)c2)CC1; Criterion not met
CN1C2CCC1CC(OC(c1ccc(F)cc1)c1ccc(F)cc1)C2.Cl (stereo not drawn); Criterion not met
COc1cc2ncnc(Nc3ccc(F)c(Cl)c3)c2cc1NC(=O)/C=C/CN1CCCCC1 [DACOMITINIB ANHYDROUS]; Criterion met
CCOC(=O)c1c(C)[nH]c2ccc3c(c12)CN1CCc2cc(OC)ccc2C1O3 (stereo not drawn); Criterion met

### Prompt Lab note: Population Membrane Permeable-Phenotype (%) threshold 9%. Does this compound come in strictly under it? CCCn1c(=O)c2[nH]c(-c3cnn(Cc4cccc(C(F)(F)F)c4)c3)nc2n(CC)c1=O [GS 6201]
### Response Criterion not met

### Prompt Lab note: Population Membrane Permeable-Phenotype (%) threshold 9%. Does this compound come in strictly under it? O=C1NC(=O)C(c2cnc3ccccn23)=C1c1cn2c3c(cc(F)cc13)CN(C(=O)N1CCCCC1)CC2 [LY-2090314]
### Response Criterion met

---

Quick list: Population Pyknosed Nuclei (%) per entry.
tested on: Fibroblast; experiment: Multiplex assay against human fibroblast; type: toxicity, cell-based; settings: 12 h, 1 µM, compound concentration 1 uM, replicate 1
# unit: % | format: bare number

Solved entries:
CNc1cc(Oc2cc(C(=O)Nc3cc(N4CCN(C)CC4)cc(C(F)(F)F)c3)ccc2C)ncn1; 29
CNC(=O)c1ccc(Nc2nc(OC3CCCC3)c3c(-c4ccc5nc(C)oc5c4)c[nH]c3n2)c(OC)c1; 17
CCN1CCN(Cc2ccc(Nc3ncc(F)c(-c4cc(F)c5nc(C)n(C(C)C)c5c4)n3)nc2)CC1.CS(=O)(=O)O; 20
CCOC(=O)c1c(C)[nH]c2ccc3c(c12)CN1CCc2cc(OC)ccc2C1O3 (stereo not given); 26
COc1cc2ncnc(Nc3ccc(F)c(Cl)c3)c2cc1NC(=O)/C=C/CN1CCCCC1 [DACOMITINIB ANHYDROUS]; 14
Cc1cc(C)c(S(=O)(=O)N(Cc2ccc(-c3cccc(S(C)(=O)=O)c3)cc2)Cc2ccc(C(F)(F)F)o2)c(C)c1; 34
O=C(Nc1ccc(-c2ccnc(Nc3ccc(N4CCOCC4)cc3)n2)cc1)[C@@H]1CCCN1; 33
Cc1cn(-c2cc(NC(=O)c3ccc(C)c(Nc4nccc(-c5cccnc5)n4)c3)cc(C(F)(F)F)c2)cn1; 34
C=C1/C(=C\C=C2/CCC[C@]3(C)[C@@H]([C@H](C)/C=C/[C@H](C)C(C)C)CC[C@@H]23)C[C@@H](O)C[C@@H]1O; 42
CCOc1cc(C(=O)N2CCC(N3CCN(C)CC3)CC2)ccc1Nc1ncc2c(n1)N(C1CCCC1)c1ccccc1C(=O)N2C; 30

molecule Cl.Oc1ccc2c3c1O[C@H]1c4[nH]c5c(c4C[C@@]4(O)[C@@H](C2)N(CC2CC2)CC[C@]314)C[C@@]1(O)[C@H]2Cc3ccc(O)c4c3[C@@]1(CCN2CC1CC1)[C@H]5O4 , Population Pyknosed Nuclei (%) observed: 32

molecule CCc1cccc(CC)c1NC(=O)c1nn(C)c2c1CCc1cnc(Nc3ccc(C(=O)NC4CCN(C)CC4)cc3OC(F)(F)F)nc1-2 , Population Pyknosed Nuclei (%) observed: 39

molecule O=C(Nc1ccc(-n2nc(-c3cccnc3)cc2C(F)(F)F)cn1)c1ccc(-c2ccccc2)c(F)c1 , Population Pyknosed Nuclei (%) observed: 40

molecule Cc1ccc(C(=O)Nc2cccc(C(F)(F)F)c2)cc1Nc1nc(-c2cccnc2)nc2c1cnn2C , Population Pyknosed Nuclei (%) observed: 35

molecule Cl.O=c1c2cccn2c2ccccc2n1CCCN1CCC(c2ccc(Cl)cc2)CC1 , Population Pyknosed Nuclei (%) observed: 17
